test system: Erythrocyte; test: Induction of membrane modification in erythrocytes assessed as formation of discocyte shape change at 25 ug/mL after 48 hrs by phase contrast light microscopy; format: functional, cell-based
The source made the active and inactive calls. The rule behind the calls is not given here.
Readout Name: Activity

Known results for compounds:
- Compound: "C=C1CC[C@@H]2[C@](C)(CCC[C@]2(C)C(=O)O)[C@H]1CCc1ccoc1 [LAMBERTIAINC ACID]"
  Data Value: "Active"
- Compound: "C=C[C@@]1(C)CC[C@H]2[C@@](O)(CC[C@H]3C(C)(C)[C@@H](O)CC[C@@]32C)C1"
  Data Value: "Active"
- Compound: "C=C1CC[C@@H]2[C@](C)(CCC[C@]2(C)C(=O)O)[C@H]1CCC1=CC(=O)OC1O (stereo partly specified)"
  Data Value: "Active"
- Compound: "C=C1CC[C@@H]2[C@](C)(CCC[C@]2(C)C(=O)O)[C@H]1CCC1=CC(O)OC1=O (stereo partly specified)"
  Data Value: "Active"
- Compound: "C=C1CC[C@@H]2[C@](C)(CCC[C@]2(C)C(=O)O)[C@H]1CCC1=CCOC1=O [PINUSOLIDIC ACID]"
  Data Value: "Active"

Asked: Param item = C=C1CC[C@@H]2[C@](C)(CCC[C@]2(C)C(=O)O)[C@H]1CC/C(C)=C/CO [ISOCUPRESSIC ACID] ; retrieve measured Activity.
Given back: Active
